Answer each item with its documented TGI.
Test system: MOLT-4 leukemia
test.description: NCI tumour cell line growth inhibition, 48 h

Enquiry: Query for MOLT-4 leukemia: what TGI does the record show for Cc1ccccc1OC(C)C(=O)NN1C(=O)CC(=O)N(c2ccc(Cl)cc2)C1=S (centres undefined) ?
Return: > 100 µM

Enquiry: Query for MOLT-4 leukemia: what TGI does the record show for `OC[C@@H](O)[C@H]1NC[C@@H](O)[C@H]1O` ?
Return: > 100 µM

Enquiry: Query for MOLT-4 leukemia: what TGI does the record show for `COc1cc(OCc2ccc3oc(=O)c(-c4ccccc4)nc3c2)cc(OC)c1OC` ?
Return: > 100 µM

Enquiry: Query for MOLT-4 leukemia: what TGI does the record show for `O=CNc1c(Cl)cc2c(c1Cl)Cc1cc([N+](=O)[O-])ccc1-2` ?
Return: > 100 µM

###

Tested on: EKVX NSCLC
test.description: NCI tumour cell line growth inhibition, 48 h
Answer each item with its documented TGI.

Enquiry: Bench note: what TGI did `Nc1c2ccccc2nc2c1ccc1ncccc12` show?
Return: > 100 µM

Enquiry: Bench note: what TGI did `O=C1CCC(=Nc2ccc(Cl)cc2)N1C(=O)COc1ccc(OCC(=O)N2C(=O)CSC2=Nc2ccc(Cl)cc2)cc1` show?
Return: > 100 µM

Enquiry: Bench note: what TGI did `C1CCSCCCCSCCCCSCCCCSC1` show?
Return: > 100 µM

Enquiry: Bench note: what TGI did `Cc1sc(C(=O)Nc2cc(C(=O)NCCCN(C)C)n(C)c2)cc1NC(=O)CCCN1C(=O)c2cccc3cccc(c23)C1=O` show?
Return: > 100 µM

Enquiry: Bench note: what TGI did `CC(C)(C)N=c1n(C(C)(C)C)oc(=O)n1C(C)(C)C` show?
Return: > 100 µM

Enquiry: Bench note: what TGI did `CCN(CC)S(=O)(=O)c1ccc(OC)c(Nc2ncc(-c3ccccc3)o2)c1` show?
Return: > 25 µM

###

Answer each item with its documented TGI.
System: SK-MEL-28 melanoma
test.description: NCI tumour cell line growth inhibition, 48 h

Enquiry: Bench note: what TGI did CC(=O)N/N=C1/NN(C(C)=O)C2(S1)C(=O)Nc1ccc(Br)cc12 (stereo not drawn) show?
Return: > 100 µM

Enquiry: Bench note: what TGI did COc1ccc(CC(CO)NC(=O)OCc2ccccc2)cc1Oc1ccc(CC(CO)NC(=O)OCc2ccccc2)cc1 (stereo not drawn) show?
Return: 54.9 µM

Enquiry: Bench note: what TGI did `O=c1cc(/C=C/c2ccc(O)c(O)c2)oc(/C=C/c2ccc(O)c(O)c2)c1` show?
Return: 31.6 µM

Enquiry: Bench note: what TGI did `C[N+](C)(C)CC(=O)N/N=C(/Cc1nc2c3c(ccc2[nH]c1=O)C(=O)c1ccccc1C3=O)C(=O)Nc1ccc(Cl)c(Cl)c1` show?
Return: > 100 µM

Enquiry: Bench note: what TGI did `CNC(=O)n1ccc2cc(Oc3ccnc(NC(=O)c4ccc(C5CCN(CCO)CC5)cc4)c3)c(OCCOC)cc21` show?
Return: 19.2 µM

Enquiry: Bench note: what TGI did `O=C1C(c2c(O)[nH]c3ccc(S(=O)(=O)O)cc23)=Nc2ccccc21` show?
Return: > 100 µM

Enquiry: Bench note: what TGI did `CN(C)S(=O)(=O)c1ccc(NC(=O)COC(=O)c2ccc(S(=O)(=O)N3CCCCC3)cc2)cc1` show?
Return: > 100 µM

Enquiry: Bench note: what TGI did `Nc1ccn(Cc2ccc(C34CC5CC(CC(C5)C3)C4)c(O)c2)c(=O)n1` show?
Return: > 100 µM

Enquiry: Bench note: what TGI did `C/C(=C\c1ccccc1)C(=O)CCN1CCOCC1` show?
Return: 35.4 µM

Enquiry: Bench note: what TGI did `C1CCSCCCCSCCCCSCCCCSC1` show?
Return: > 100 µM

Enquiry: Bench note: what TGI did `COC(=O)c1c(C)cccc1/C=C1/Cc2c(C)cccc2C1=O` show?
Return: > 100 µM

Enquiry: Bench note: what TGI did `CC(=O)NS(=O)(=O)c1ccc(NC(=O)c2c3ccccc3nc3ccccc23)cc1` show?
Return: > 100 µM

Enquiry: Bench note: what TGI did `CCOC(=O)C1=C(C)N(Cc2ccccc2)C(C)=C(C(=O)OCC)C1c1ccccc1O` show?
Return: > 100 µM

###

Test system: UACC-62 melanoma
test.description: NCI tumour cell line growth inhibition, 48 h
reported.endpoint: TGI

Enquiry: Bench note: what TGI did `CC(C)C(=O)Nc1nc2nc[nH]c2c(=O)[nH]1` show?
Return: > 100 µM

Enquiry: Bench note: what TGI did O=C(O)C1CC(c2ccc(F)cc2)=Nc2ccc(F)cc2S1 (stereo unspecified) show?
Return: > 100 µM

Enquiry: Bench note: what TGI did `O=C1/C(=C/c2ccccc2S)N=C(c2ccccc2)N1c1nc2ccc(Sc3ccccc3)cc2[nH]1` show?
Return: 73.5 µM

Enquiry: Bench note: what TGI did `O=CNc1c(Cl)cc2c(c1Cl)Cc1cc([N+](=O)[O-])ccc1-2` show?
Return: > 100 µM

Enquiry: Bench note: what TGI did `CCCC[C@H](NC(=O)[C@H]1CCCN1C)C(=O)N(C)[C@H](C[C@@H](OC(C)=O)c1nc(C(=O)N[C@@H](Cc2ccccc2)C[C@H](C)C(=O)OCC)cs1)C(C)C` show?
Return: > 33.3 µM

Enquiry: Bench note: what TGI did `Cc1ccc(-c2c(N)[n+]([O-])c3ccccc3[n+]2[O-])cc1` show?
Return: 20.1 µM

Enquiry: Bench note: what TGI did `CCCCn1c2c(n(CCCC)c1=S)-c1c(n(CCCC)c(=S)n1CCCC)S[Se][Se]S2` show?
Return: 22.3 µM

Enquiry: Bench note: what TGI did `CC(C)=CCc1c2c(c3occ(-c4ccc(O)c(O)c4)c(=O)c3c1O)C=CC(C)(C)O2` show?
Return: 14.2 µM

Enquiry: Bench note: what TGI did CSCCC(NCc1c(O)ccc2c(-c3ccccc3)cc(=O)oc12)C(=O)O (stereo unspecified) show?
Return: > 100 µM

Enquiry: Bench note: what TGI did `CCCc1[nH]nc(CCC(=O)N(Cc2ccccc2)Cc2ccccc2)c1CC` show?
Return: > 100 µM

Enquiry: Bench note: what TGI did `CC1=NCCc2c1[nH]c1cc(O)ccc21` show?
Return: > 100 µM

Enquiry: Bench note: what TGI did `CNS(=O)(=O)NN(C)S(=O)(=O)c1ccc(F)cc1` show?
Return: > 100 µM

Enquiry: Bench note: what TGI did CCCCCn1c(=N)n(CC(O)COc2cccc(C)c2)c2ccccc21 (stereo unspecified) show?
Return: 18.5 µM

Enquiry: Bench note: what TGI did `C/C(=N/NC(N)=S)c1ccc2ccccc2c1` show?
Return: 28.6 µM

Enquiry: Bench note: what TGI did `CCN(CC)CCOC(NC(C)=O)(c1ccccc1)c1ccccc1` show?
Return: > 100 µM

Enquiry: Bench note: what TGI did `O=C1NCCCc2nonc21` show?
Return: > 100 µM

###

Answer each item with its documented TGI.
System: HOP-62 NSCLC
test.description: NCI tumour cell line growth inhibition, 48 h
Record the value in µM, omitting the unit from your answer.

Enquiry: Bench note: what TGI did `CCN(CC)CCn1ccc(=O)c2cc3c(=O)ccn(CCN(CC)CC)c3c(C)c21` show?
Return: 19.7

Enquiry: Bench note: what TGI did `COC(=O)[C@]12CC[C@@H](C)[C@H](C)[C@@H]1C1=CC[C@@H]3[C@@]4(C)C[C@@H](OC(C)=O)[C@H](O)[C@@](C)(COC(C)=O)[C@@H]4[C@H](O)C[C@@]3(C)[C@]1(C)CC2` show?
Return: 4.1

###

Tested on: SK-MEL-28 melanoma
test.description: NCI tumour cell line growth inhibition, 48 h
reported.endpoint: TGI

Enquiry: Bench note: what TGI did `CCC[C@H]1C(=O)N=C(N)N1C(=O)OCc1ccccc1` show?
Return: > 100 µM

Enquiry: Bench note: what TGI did Cc1ccccc1OC(C)C(=O)NN1C(=O)CC(=O)N(c2ccc(Cl)cc2)C1=S (stereo not drawn) show?
Return: > 100 µM

Enquiry: Bench note: what TGI did Nc1c(C(=O)Nc2cccc([N+](=O)[O-])c2)sc2nc3c(cc12)C(O)CCC3 (stereo not drawn) show?
Return: > 100 µM

###

System: KM20L2 colon
test.description: NCI tumour cell line growth inhibition, 48 h
Answer each item with its documented TGI.

Enquiry: Bench note: what TGI did `O=Cc1cn(C(=O)c2ccccc2)c2ccccc12` show?
Return: > 100 µM

Enquiry: Bench note: what TGI did CSC1CC2C(CC1(C)O)C2(C)C (centres undefined) show?
Return: > 100 µM

Enquiry: Bench note: what TGI did `C/C(=N/NC(N)=S)c1ccc2ccccc2c1` show?
Return: 80.4 µM

Enquiry: Bench note: what TGI did `CCOC(=O)C1=C(C)N(Cc2ccccc2)C(C)=C(C(=O)OCC)C1c1ccccc1O` show?
Return: > 100 µM
